Origin of values: patent US20250186437A1

Tested on: MOLM-13 cells
Assay: MOLM-13 Cell Proliferation Assay (indicator of DHODH inhibition)
Type: cell-based
Details: Homo sapiens, 72 Hours of culture, CellTiter-Glo, no uridine
measurement name: IC50 (nM)

Below: 10 compounds and their reported IC50.
Cc1ccc([C@H]2c3[nH]c4ccc(Cl)cc4c3CCN2c2ncc(-c3ccccc3)cn2)c(F)c1F : 2.5
Cc1ccc(C2c3[nH]c4c(N)cc(Cl)cc4c3CCN2c2nccc(C(F)(F)F)n2)c(F)c1F (stereo not drawn) : 0.5
FC(F)(F)c1ccnc(N2CCc3c([nH]c4ccc(Cl)cc34)C2c2cnc(N3CC4CC3CO4)nc2)n1 (stereo not drawn) : 7.6
Cc1cc(C(F)(F)F)nc(N2CCc3c([nH]c4cc(F)c(Cl)cc34)C2c2ccc(C)c(F)c2F)n1 (stereo not drawn) : 0.9
Cc1cc(C)nc(N2CCc3c([nH]c4ccc(Cl)c(F)c34)C2c2ccc(/C=C/CCO)cc2)n1 (stereo not drawn) : 3.2
Cc1ccc(C2c3[nH]c4ccc(Cl)c(F)c4c3CCN2c2ncc(Cl)cn2)cc1 (stereo not drawn) : 9.8
Cc1ccc(C2c3[nH]c4ccc(Cl)c(F)c4c3CCN2c2nc(C(F)(F)F)cc(C(F)(F)F)n2)c(F)c1F (stereo not drawn) : 0.8
Cc1ccc([C@H]2c3[nH]c4ccc(Cl)c(F)c4c3CCN2c2nc(C)c(F)c(C)n2)c(F)c1F : 0.4
FC(F)(F)c1ccnc(N2CCc3c([nH]c4ccc(Cl)cc34)C2c2ccc(-n3cnnc3)cc2)n1 (stereo not drawn) : 98.2
FC(F)(F)c1nc(N2CCc3c([nH]c4ccc(Cl)cc34)[C@@H]2c2ccc(N3CCOCC3)nc2)nc(C(F)(F)F)n1 : 0.2

(A) FC(F)(F)c1cc(C(F)(F)F)nc(N2CCc3c([nH]c4ccc(Cl)cc34)C2c2cnc(N3CCOCC3)nc2)n1 (stereo not drawn)
(B) Fc1c(Cl)ccc2[nH]c3c(c12)CCN(c1nccc(C(F)(F)F)n1)C3c1cnc(N2CCOCC2)nc1 (stereo not drawn)
Request: Of A and B , which shows the smaller IC50 value? Refer to your chosen entry by its label in the reply.
Response: A
(A: 0.8 nM, B: 2.1 nM)

(I) FC1(F)CN(c2ccnc(N3CCc4c([nH]c5ccc(Cl)cc45)[C@@H]3c3cnc(N4CCOCC4)nc3)n2)C1
(II) Cc1cnc(N2CCc3c([nH]c4ccc(Cl)cc34)C2c2ccc(F)cc2)nc1 (stereo not drawn)
Request: I or II : whose IC50 is greater? Refer to your chosen entry by its label in the reply.
Response: II
